# Tested on: SW-620 colon
# PROCEDURE DETAILS: NCI-60 one-dose screen, 48 h
# EXPERIMENTAL SETUP: 10 µM unless noted
The panel holds about 83,000 compounds, 20% with a hit somewhere; the sample as a whole holds those more often. Calls of active or inactive are those of the source. The calls were made as follows: active = growth percent below 10; inactive = the rest.
Your answer must be one of the following: y for active, n for inactive

Worked set:
compound="CCN(CC)c1ccc(C(O)C2=CC(=O)c3ccccc3C2=O)cc1 (configuration not stated)" measured_target="SW-620 colon" group_label=y
compound="O=C1CCCN1C1CCN(Cc2cc3ccccc3[nH]c2=O)c2ccccc21 (configuration not stated)" measured_target="SW-620 colon" group_label=n
compound=O=C(CN1CCCCC1)Sc1nnc2sc3ccccc3n12 measured_target="SW-620 colon" group_label=n
compound=Clc1nc(Cl)c2ncn(-c3ccccc3)c2n1 measured_target="SW-620 colon" group_label=n
compound=O=C1c2nsnc2C(=O)c2c(F)c(F)c(F)c(F)c21 measured_target="SW-620 colon" group_label=y

Prompt: Write down the call the test reported for this compound. Item: Nc1ccccc1-c1ccc([N+](=O)[O-])cc1
Response: n

Prompt: Another compound to look at: COc1cc(/C=C2\COc3ccc(O)cc3C2=O)cc(OC)c1
Response: y

Prompt: Moving on to the next compound: CC12CCC3C(CCC4CC(=O)/C(=C\O)CC43C)C1CCC(=O)O2 (configuration not stated)
Response: n

Prompt: Next compound: C[n+]1c2ccccc2c(Nc2ccc(N3CCCCC3)cc2)c2[nH]c3ccccc3c21
Response: y

Prompt: Another compound to look at: O=C1N(C2CCCCC2)C(=O)N1C1CCCCC1
Response: n

Prompt: Would you kindly repeat that for NC(=O)c1ccccc1NC(=O)c1ccccc1Cl ?
Response: n

Prompt: Same lookup for O=C1/C(=C/c2ccc([N+](=O)[O-])s2)Oc2ccc(Br)cc21 , please.
Response: y

Prompt: Next compound: CC[C@H](C)C(=O)O[C@H]1C[C@@H](C)C=C2C=C[C@H](C)[C@H](CC[C@@H]3C[C@@H](O)CC(=O)O3)[C@H]21
Response: n

Prompt: Same question, C=C(C[C@](O)(C(=O)/C=C/c1ccc(Cl)cc1)C(=O)OC)c1ccccc1 this time
Response: n

Prompt: // same read-out, input: N#Cc1cccc(/C=C(/C(=O)c2ccccc2)c2ccccc2)c1
Response: y

Prompt: Also check O=C1NCN(c2ccccc2)C12CCN(CCCC(c1ccc(F)cc1)c1ccc(F)cc1)CC2
Response: n

Prompt: Consider next the compound COc1ccc(-n2nnc(C(=O)O)c2-c2cc(OC)c(OC)c(OC)c2)cc1 in the same way.
Response: n

Prompt: One more compound: CC[C@]1(O)CC2CN(CCc3c([nH]c4ccccc34)[C@@](C(=O)OC)(c3cc4c(cc3OC)N(C)[C@H]3[C@@](O)(C(=O)OC)[C@H](OC(C)=O)[C@]5(CC)C=CCN6CC[C@]43[C@@H]65)C2)C1 (some centres not stated)
Response: n

Prompt: Try the compound O=C1OC(c2ccc(-c3ccccc3)cc2)=C/C1=C/c1cccs1
Response: n

Prompt: Another compound to look at: O=C1c2ccccc2-c2c1nc1ccccc1[n+]2[O-]
Response: n
